Values compiled from patent US12540128B2.

# key: entry, value: percentage damage caused to the plant, five point scale, SETFA
- System: Setaria faberi (SETFA)
- Method Notes: B2 Post-Emergence Efficacy Test 2
- Type: in vivo
- Condition Notes: 250 g/ha, after 13 days

Smiles Text: Cc1nn(C)c(=O)c(-c2c(F)ccc(Cl)c2CCc2ccc3c(c2)CC(=O)N3)c1O
Result: 4 (4=60-79%)

# lookup: percentage damage caused to the plant, five point scale, SETFA of `Cc1nn(C)c(=O)c(-c2c(F)ccc(Cl)c2CCc2ccc3ccn(C)c3c2)c1O` 2 (2=20-39%)

# lookup: percentage damage caused to the plant, five point scale, SETFA of `Cc1nn(C)c(=O)c(-c2c(F)ccc(Cl)c2CCc2ccc3ccccc3c2)c1O` 4 (4=60-79%)

# lookup: percentage damage caused to the plant, five point scale, SETFA of `Cc1nn(C)c(=O)c(-c2c(F)ccc(Cl)c2CCc2ccc3cnn(C)c3c2)c1O` 4 (4=60-79%)
